- TARGET_DESC: feline FcRn complex (FcRn-α subunit and β-microglobulin) (feline)
- ASSAY_TEXT: SPR (Biacore), FcRn on SA chip, pH 6
EXPERIMENTAL_ENDPOINT: Kd (nM)

>>> reported_measurement("feline IgG1a mutant ID No. 328: S428Y, D312P, S434Y, P247V, T250Q, S252H (antibody, part only; not given: Variable domains, not shown: another chain or arm of the molecule; small tags and cut ends) constant: ASTTAPSVFPLAPSCGTTSGATVALACLVLGYFPEPVTVSWNSGALTSGVHTFPAVLQASGLYSLSSMVTVPSSRWLSDTFTCNVAHPPSNTKVDKTVRKTDHPPGPKPCDCPKCPPPEMLGGPSIFIFPPKVKDQLHISRTPEVTCLVVDLGPDDSDVQITWFVDNTQVYTAKTSPREEQFNSTYRVVSVLPILHQPWLKGKEFKCKVNSKSLPSPIERTISKAKGQPHEPQVYVLPPAQEELSRNKVSVTCLIKSFHPPDIAVEWEITGQPEPENNYRTTPPQLDSDGTYFVYSKLSVDRSHWQRGNTYTCSVYHEALHYHHTQKSLTQSPGK")
0.0418
>>> reported_measurement("feline IgG1a mutant ID No. 372: S252Y, S434R, Q311M (antibody, part only; not given: Variable domains, not shown: another chain or arm of the molecule) constant: ASTTAPSVFPLAPSCGTTSGATVALACLVLGYFPEPVTVSWNSGALTSGVHTFPAVLQASGLYSLSSMVTVPSSRWLSDTFTCNVAHPPSNTKVDKTVRKTDHPPGPKPCDCPKCPPPEMLGGPSIFIFPPKPKDTLYISRTPEVTCLVVDLGPDDSDVQITWFVDNTQVYTAKTSPREEQFNSTYRVVSVLPILHMDWLKGKEFKCKVNSKSLPSPIERTISKAKGQPHEPQVYVLPPAQEELSRNKVSVTCLIKSFHPPDIAVEWEITGQPEPENNYRTTPPQLDSDGTYFVYSKLSVDRSHWQRGNTYTCSVSHEALHRHHTQKSLTQSPGK")
0.443
>>> reported_measurement("feline IgG1a mutant ID No. 293: S252Y, S428Y, Q311W, D312P, S434Y (antibody, part only; not given: Variable domains, not shown: another chain or arm of the molecule; small tags and cut ends) constant: ASTTAPSVFPLAPSCGTTSGATVALACLVLGYFPEPVTVSWNSGALTSGVHTFPAVLQASGLYSLSSMVTVPSSRWLSDTFTCNVAHPPSNTKVDKTVRKTDHPPGPKPCDCPKCPPPEMLGGPSIFIFPPKPKDTLYISRTPEVTCLVVDLGPDDSDVQITWFVDNTQVYTAKTSPREEQFNSTYRVVSVLPILHWPWLKGKEFKCKVNSKSLPSPIERTISKAKGQPHEPQVYVLPPAQEELSRNKVSVTCLIKSFHPPDIAVEWEITGQPEPENNYRTTPPQLDSDGTYFVYSKLSVDRSHWQRGNTYTCSVYHEALHYHHTQKSLTQSPGK")
1.07
>>> reported_measurement("feline IgG1a mutant ID No. 351: S252Y, S428M, S434F, Q311W (antibody, part only; not given: Variable domains, not shown: another chain or arm of the molecule) constant: ASTTAPSVFPLAPSCGTTSGATVALACLVLGYFPEPVTVSWNSGALTSGVHTFPAVLQASGLYSLSSMVTVPSSRWLSDTFTCNVAHPPSNTKVDKTVRKTDHPPGPKPCDCPKCPPPEMLGGPSIFIFPPKPKDTLYISRTPEVTCLVVDLGPDDSDVQITWFVDNTQVYTAKTSPREEQFNSTYRVVSVLPILHWDWLKGKEFKCKVNSKSLPSPIERTISKAKGQPHEPQVYVLPPAQEELSRNKVSVTCLIKSFHPPDIAVEWEITGQPEPENNYRTTPPQLDSDGTYFVYSKLSVDRSHWQRGNTYTCSVMHEALHFHHTQKSLTQSPGK")
0.011
>>> reported_measurement("feline IgG1a mutant ID No. 257: S428M, S434Y (antibody, part only; not given: Variable domains, not shown: another chain or arm of the molecule) constant: ASTTAPSVFPLAPSCGTTSGATVALACLVLGYFPEPVTVSWNSGALTSGVHTFPAVLQASGLYSLSSMVTVPSSRWLSDTFTCNVAHPPSNTKVDKTVRKTDHPPGPKPCDCPKCPPPEMLGGPSIFIFPPKPKDTLSISRTPEVTCLVVDLGPDDSDVQITWFVDNTQVYTAKTSPREEQFNSTYRVVSVLPILHQDWLKGKEFKCKVNSKSLPSPIERTISKAKGQPHEPQVYVLPPAQEELSRNKVSVTCLIKSFHPPDIAVEWEITGQPEPENNYRTTPPQLDSDGTYFVYSKLSVDRSHWQRGNTYTCSVMHEALHYHHTQKSLTQSPGK")
0.264
>>> reported_measurement("feline IgG1a mutant ID No. 374: S252Y, S434R, Q311Y (antibody, part only; not given: Variable domains, not shown: another chain or arm of the molecule) constant: ASTTAPSVFPLAPSCGTTSGATVALACLVLGYFPEPVTVSWNSGALTSGVHTFPAVLQASGLYSLSSMVTVPSSRWLSDTFTCNVAHPPSNTKVDKTVRKTDHPPGPKPCDCPKCPPPEMLGGPSIFIFPPKPKDTLYISRTPEVTCLVVDLGPDDSDVQITWFVDNTQVYTAKTSPREEQFNSTYRVVSVLPILHYDWLKGKEFKCKVNSKSLPSPIERTISKAKGQPHEPQVYVLPPAQEELSRNKVSVTCLIKSFHPPDIAVEWEITGQPEPENNYRTTPPQLDSDGTYFVYSKLSVDRSHWQRGNTYTCSVSHEALHRHHTQKSLTQSPGK")
0.715
>>> reported_measurement("feline IgG1a mutant ID No. 325: S428Y, D312P, S434Y, D401R, T403R (antibody, part only; not given: Variable domains, not shown: another chain or arm of the molecule) constant: ASTTAPSVFPLAPSCGTTSGATVALACLVLGYFPEPVTVSWNSGALTSGVHTFPAVLQASGLYSLSSMVTVPSSRWLSDTFTCNVAHPPSNTKVDKTVRKTDHPPGPKPCDCPKCPPPEMLGGPSIFIFPPKPKDTLSISRTPEVTCLVVDLGPDDSDVQITWFVDNTQVYTAKTSPREEQFNSTYRVVSVLPILHQPWLKGKEFKCKVNSKSLPSPIERTISKAKGQPHEPQVYVLPPAQEELSRNKVSVTCLIKSFHPPDIAVEWEITGQPEPENNYRTTPPQLDSRGRYFVYSKLSVDRSHWQRGNTYTCSVYHEALHYHHTQKSLTQSPGK")
0.0072
>>> reported_measurement("feline IgG1a mutant ID No. 265: Q311W, D312P, L314K, S434Y (antibody, part only; not given: Variable domains, not shown: another chain or arm of the molecule) constant: ASTTAPSVFPLAPSCGTTSGATVALACLVLGYFPEPVTVSWNSGALTSGVHTFPAVLQASGLYSLSSMVTVPSSRWLSDTFTCNVAHPPSNTKVDKTVRKTDHPPGPKPCDCPKCPPPEMLGGPSIFIFPPKPKDTLSISRTPEVTCLVVDLGPDDSDVQITWFVDNTQVYTAKTSPREEQFNSTYRVVSVLPILHWPWKKGKEFKCKVNSKSLPSPIERTISKAKGQPHEPQVYVLPPAQEELSRNKVSVTCLIKSFHPPDIAVEWEITGQPEPENNYRTTPPQLDSDGTYFVYSKLSVDRSHWQRGNTYTCSVSHEALHYHHTQKSLTQSPGK")
7.95

// data source = patent US20240400708A1
